Target: UniProtKB P08908
Sequence (P08908 whole entry): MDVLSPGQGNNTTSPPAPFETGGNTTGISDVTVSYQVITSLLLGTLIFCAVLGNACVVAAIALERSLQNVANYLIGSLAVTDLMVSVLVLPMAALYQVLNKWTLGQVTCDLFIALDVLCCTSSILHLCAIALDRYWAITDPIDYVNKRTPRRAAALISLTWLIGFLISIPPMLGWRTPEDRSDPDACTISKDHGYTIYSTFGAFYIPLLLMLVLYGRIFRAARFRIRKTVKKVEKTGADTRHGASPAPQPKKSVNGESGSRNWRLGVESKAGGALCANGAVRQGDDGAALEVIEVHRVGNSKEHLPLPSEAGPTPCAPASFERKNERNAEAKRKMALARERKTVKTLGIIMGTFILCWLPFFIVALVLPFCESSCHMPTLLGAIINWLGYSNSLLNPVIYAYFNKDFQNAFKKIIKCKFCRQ
Test: Binding to human 5HT1A receptor (HeLa HA7 cell line)
Excerpt: The HeLa HA7 cell line expressing the 5HT1A human receptor was obtained from Tulco (Duke Univ., Durham, N.C., USA) and cultured according to the method of Fargin et al., J. Biol. Chem., 264, 14848 (1989). The binding of the derivatives of the present invention with human 5HT1Da, 5HT1Db and 5HT1A receptors was studied according to the method described by P. Pauwels and C. Palmier (Neuropharmacology, 33, 67, 1994). […]
Readout type: Ki

NCCc1c[nH]c2ccc(OCC(=O)N3CCN(c4ccc(NC(=O)Oc5ccccc5)cc4)CC3)cc12 ... 0.039 µM
